- Measured on: StGyrA-CTD D692A (Salmonella enterica serovar Typhi CT18, UniProt A0A1U7FVV6 530-840, D692A)
- Assay explanation: fluorescence binding; 1 mM Mg2+
- Cond: protein: recombinant; tags: C-terminal 6xHis; blunt
Quantity kind: pKd
Lab note: report pKd as minus log10 of the concentration in molar units, number only.

Return the recorded pKd value; entry: FAM-37 bp DNA (dsDNA) DNA 1: TAAAGTCTAGAGACACGCATAGTCAATGACGGAGTTA DNA 2: TAACTCCGTCATTGACTATGCGTGTCTCTAGACTTTA 6.89
